# Assay Details: Binding affinity to SDS detergent micelles assessed as reduction in blue shift at 10 uM by tryptophan fluorescence-based fluorometry
Activity calls are given as the source filed them. The rule behind the calls is not given here. Bridge positions count the residues as written; N and C are the ends. Square brackets hold non-standard residues; d marks the D form. Peptide text beside a SMILES is read from it. S5 = C=CCCC[C@](C)(N)C(=O)O
Pick from YES = active, NO = inactive when you respond.

# example entries with known answers
[[record]]
compound = "C[C@H](NC(=O)CNC(=O)[C@H](Cc1ccccc1)NC(=O)[C@]1(C)CCC/C=C\\CCC[C@](C)(NC(=O)[C@H](Cc2ccccc2)NC(=O)CNC(=O)[C@H](C)NC(=O)[C@H](CCCCN)NC(=O)[C@H](CCCCN)NC(=O)[C@H](CCCCN)NC(=O)[C@H](CCCCN)NC(=O)[C@H](CCCCN)NC(=O)[C@@H](N)CCCCN)C(=O)N[C@@H](C)C(=O)N[C@@H](Cc2c[nH]c3ccccc23)C(=O)NCC(=O)N1)C(N)=O (H-KKKKKKAGF[S5]AWG[S5]FGA-NH2; staple (Z) 10-14)"
classification = "YES"

[[record]]
compound = "C[C@H](NC(=O)CNC(=O)[C@H](Cc1ccccc1)NC(=O)[C@]1(C)CCC/C=C\\CCC[C@](C)(NC(=O)[C@H](Cc2ccccc2)NC(=O)CNC(=O)[C@H](CC(N)=O)NC(=O)[C@H](CCCCN)NC(=O)[C@H](CCCCN)NC(=O)[C@H](CCCCN)NC(=O)[C@H](CCCCN)NC(=O)[C@H](CCCCN)NC(=O)[C@@H](N)CCCCN)C(=O)N[C@@H](C)C(=O)N[C@@H](Cc2c[nH]c3ccccc23)C(=O)NCC(=O)N1)C(N)=O (H-KKKKKKNGF[S5]AWG[S5]FGA-NH2; staple (Z) 10-14)"
classification = "NO"


--- query ---
Ask | Assay result, entry C[C@H](NC(=O)CNC(=O)[C@H](Cc1ccccc1)NC(=O)[C@]1(C)CCC/C=C\CCC[C@](C)(NC(=O)[C@H](Cc2ccccc2)NC(=O)CNC(=O)[C@H](C)NC(=O)[C@H](CCCCN)NC(=O)[C@H](CCCCN)NC(=O)[C@H](CCCCN)NC(=O)[C@H](CCCCN)NC(=O)[C@H](CCCCN)NC(=O)[C@@H](N)CCCCN)C(=O)N[C@@H](C)C(=O)N[C@@H](Cc2c[nH]c3ccccc23)C(=O)N[C@@H](C)C(=O)N1)C(N)=O (H-KKKKKKAGF[S5]AWA[S5]FGA-NH2; staple (Z) 10-14) — outcome?
Reply | YES

All figures here come from ChEMBL document CHEMBL4184195.
